B1: ZNF649 (parent)
chain: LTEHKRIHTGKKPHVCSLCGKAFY

Variants of: B1
ASSAY_PROCEDURE: protein stability index of a GFP-peptide fusion (GPS, HEK-293T) (PSI 1-6); higher = more stable;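 also: lentivirally expressed fusions sorted by FACS into six bins by GFP to DsRed ratio, PSI derived from sequencing read proportions per bin multiplied by bin number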
COND: c terminus: a fixed tail appended
Reported protein stability index values are given for each entry in this list.

Sample answers from the record:
In [3]: df
Out[3]:
            macromolecule_sequence   val
0   LTEHKRIHEGKKPHVCSLCGKAFY [T9E]  2.98
1   ITEHKRIHTGKKPHVCSLCGKAFY [L1I]  2.18
2  LTEHKRIHTGKKPHVCSLCTKAFY [G20T]  1.55
3  LTEHKRIHTGKKPHVCSLYGKAFY [C19Y]  2.15
4   LTEHKRIHYGKKPHVCSLCGKAFY [T9Y]   2.3

Could you share which protein stability index value was measured for LTEHKRIHTGKKEHVCSLCGKAFY [P13E] ?
2.96

Could you share which protein stability index value was measured for GTEHKRIHTGKKPHVCSLCGKAFY [L1G] ?
3.19

Could you share which protein stability index value was measured for LTEHKHIHTGKKPHVCSLCGKAFY [R6H] ?
3.63
